Biological target: nociceptin receptor ORL1 (Homo sapiens)
Construct: expressed in transfected cells
Assay: Nociceptin receptor binding inhibition assay
Conditions: inhibition of 50 pM [125I]Tyr14-Nociceptin binding to CHO/ORL1 cell membrane, SPA beads, 37° C., 60 minutes; read-out: IC50 value, nociceptin receptor binding inhibition action
Structures can show the parent of a compound that is named as a salt.
Readout kind: pIC50
To interpret pIC50, take it as minus log10 of a concentration measured in moles per litre.

Observe how each entry below is paired with its result.
Clc1cc2[nH]c(SCC3CCCCC3)nc2cc1N1CCN(CC2CC2)CC1; 8.46
CCCC(CC)Nc1nc2cc(N3CCNCC3)c(Cl)cc2[nH]1 (stereo not shown) [Referential Example 13, dihydrochloride]; 6.37
CCC(CC)COc1nc2cc(N3CCNCC3)c(Cl)cc2[nH]1 [Referential Example 1, dihydrochloride]; 8.15

Task item: Using known records, supply pIC50 for CC1(Sc2nc3c(F)c(N4CCN(CCO)CC4)c(Cl)cc3[nH]2)CCCC1
Reply: 9.02

----------
Here the recorded IC50 is given for each entry.
Biological target: nociceptin receptor ORL1 (Homo sapiens)
Construct: expressed in transfected cells
Assay: Antagonism against nociceptin-elicited G protein activation (GTPγ[35S] binding)
Type: biochemical
Settings: GTPγ[35S] binding inhibition, CHO/ORL1 cell membrane, 50 nM nociceptin, 25° C., 150 minutes
Counter-ions that a name gives are not always drawn.
Respond numerically; units are nM and should not be typed.

CC(CC(C)(C)C)Sc1nc2cc(N3CCNCC3)c(Cl)cc2[nH]1 (stereo not drawn) [Example 26, dihydrochloride]; 5.3
CCC(CC)Sc1nc2cc(Cl)c(N3CCNCC3)cc2[nH]1 [Example 1, dihydrochloride]; 9.1
CCC(CC)Sc1nc2cc(Cl)c(N3CCN(CCO)CC3)cc2[nH]1 [Example 89, dihydrochloride]; 6.8
CC1(Sc2nc3c(F)c(N4CCN(CCO)CC4)c(Cl)cc3[nH]2)CCCC1; 0.57

Task item: Tell me its IC50 on nociceptin receptor ORL1 (Homo sapiens): CCC(CC)COc1nc2cc(N3CCNCC3)c(Cl)cc2[nH]1 [Referential Example 1, dihydrochloride]
Reply: 180

Task item: // fetch IC50 for CC(C)(CN1CCOCC1)Sc1nc2cc(N3CCN(CCO)CC3)c(Cl)cc2[nH]1 [Example 101, trihydrochloride] ; system: nociceptin receptor ORL1 (Homo sapiens)
Reply: 8

----------
Target: nociceptin receptor ORL1 (Homo sapiens, UniProt P41146)
Construct: expressed in transfected cells
Sequence (P41146 whole entry): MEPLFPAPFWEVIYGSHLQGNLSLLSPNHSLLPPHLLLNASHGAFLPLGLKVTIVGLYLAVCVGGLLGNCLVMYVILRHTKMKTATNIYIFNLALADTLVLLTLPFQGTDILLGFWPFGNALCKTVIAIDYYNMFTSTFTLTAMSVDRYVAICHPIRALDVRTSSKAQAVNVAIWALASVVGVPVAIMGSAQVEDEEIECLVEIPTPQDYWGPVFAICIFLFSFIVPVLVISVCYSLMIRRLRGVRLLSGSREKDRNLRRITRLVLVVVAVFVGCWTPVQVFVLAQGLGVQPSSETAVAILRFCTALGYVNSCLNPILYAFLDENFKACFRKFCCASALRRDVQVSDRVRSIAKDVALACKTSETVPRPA
Test: Nociceptin receptor binding inhibition assay
Details: inhibition of 50 pM [125I]Tyr14-Nociceptin binding to CHO/ORL1 cell membrane, SPA beads, 37° C., 60 minutes; read-out: IC50 value, nociceptin receptor binding inhibition action
Structures can show the parent of a compound that is named as a salt.
Quick reference for IC50 among some compounds
Write the number in nM without appending the unit.

Before answering, review these 3 worked examples.
CC(CC(C)(C)C)Sc1nc2cc(N3CCNCC3)c(Cl)cc2[nH]1 (stereo not shown) [Example 26, dihydrochloride]; 1.3
CC(C)(CN1CCOCC1)Sc1nc2cc(N3CCN(CCO)CC3)c(Cl)cc2[nH]1 [Example 101, trihydrochloride]; 9.2
CCC(CC)Sc1nc2cc(Cl)c(N3CCN(CCO)CC3)cc2[nH]1 [Example 89, dihydrochloride]; 6.5

Let's switch to this compound now.
Task item: Assign IC50 to the following record: CCC(CC)Sc1nc2cc(Cl)c(N3CCNCC3)cc2[nH]1 [Example 1, dihydrochloride]
Reply: 2.1

The measurements presented in this section are drawn from patent US6969712B2.
